# Target: Ornithine carbamoyltransferase (Streptococcus/Enterococcus faecalis)
# Measurement Protocol: Binding affinity against ornithine transcarbamoylase (OTC) produced by Streptococcus faecalis The buffer taken for this study is 50 mM maleate, 0.5 mM EDTA at pH 6.0.
pKi: −log10 of the molar value.
Quick reference: pKi of the listed items.

Consider the reported pKi for these molecules:
N[C@@H](CCNCP(=O)(O)CP(=O)(O)O)C(=O)O ... < 1.70
N[C@@H](CCCNCP(=O)(O)CP(=O)(O)O)C(=O)O ... 3.18

Pending molecule:
## Input Param readout = pKi; param system = Ornithine carbamoyltransferase (Streptococcus/Enterococcus faecalis); param query = `CC(C)(C)OC(=O)N[C@@H](CCCNCP(=O)(O)CP(=O)(O)O)C(=O)O` ; response: value
## Output < 1.70

---

# Target: Ornithine carbamoyltransferase (Streptococcus/Enterococcus faecalis)
# Measurement Protocol: Binding affinity against ornithine transcarbamoylase (OTC) produced by Streptococcus faecalis The buffer taken for this study is 50 mM Tris.HCl, 0.5 mM EDTA at pH 8.0.
pKi: −log10 of the molar value.
Observation Type: pKi

N[C@@H](CCCNCP(=O)(O)CP(=O)(O)O)C(=O)O ... 2.72

P = CC(C)(C)OC(=O)N[C@@H](CCCNCP(=O)(O)CP(=O)(O)O)C(=O)O
Q = N[C@@H](CCNCP(=O)(O)CP(=O)(O)O)C(=O)O
## Input # compare pKi for P vs Q ; return the one with the smaller value // caller expects the label of the chosen entry
## Output Q
(Q: 2.49, P: 2.70)

---

# Target: Ornithine carbamoyltransferase (Streptococcus/Enterococcus faecalis)
# Measurement Protocol: Binding affinity against ornithine transcarbamoylase (OTC) produced by Streptococcus faecalis The buffer taken for this study is 50 mM Tris.HCl, 0.5 mM EDTA at pH 7.0.
Observation Type: Ki (µM)

CC(C)(C)OC(=O)N[C@@H](CCCNCP(=O)(O)CP(=O)(O)O)C(=O)O ... 1000

P = N[C@@H](CCCNCP(=O)(O)CP(=O)(O)O)C(=O)O
Q = N[C@@H](CCNCP(=O)(O)CP(=O)(O)O)C(=O)O
## Input Select the item whose Ki value is smaller, choosing between P and Q . Give the label of your selection.
## Output P
(P: 750 µM, Q: 2300 µM)
